experiment_description: in vitro
run_conditions: human, HEK293T cells
Description: Cytotoxicity against HEK293T cells assessed as cell viability at 16.7 uM by CellTiter-Glo assay relative to control
Non-standard residues stand in square brackets, D forms with d. Residues, ends and D or L forms follow the SMILES beside them. *: point of attachment. X1 = O=C(OCCCS*)Oc1ccc2nc(C3=N[C@@H](C(=O)O)CS3)sc2c1; Mpa = O=C(O)CCS
Measured viability at 16.7 µM, listed per entry.
measured_attribute: viability at 16.7 µM (%)

1) CC(C)C[C@H](NC(=O)[C@H](CCCCN)NC(=O)[C@H](Cc1c[nH]c2ccccc12)NC(=O)[C@H](CCCNC(=N)N)NC(=O)[C@H](CCCCN)NC(=O)[C@H](CC(C)C)NC(=O)[C@@H](NC(=O)[C@H](CCCNC(=N)N)NC(=O)[C@@H](NC(=O)CCSSCCCOC(=O)Oc1ccc2nc(C3=N[C@@H](C(=O)O)CS3)sc2c1)[C@@H](C)O)C(C)C)C(=O)N[C@@H](Cc1ccccc1)C(N)=O ([Mpa](X1)TRVLKRWKLF-NH2) :: 97.3
2) CC(C)C[C@H](NC(=O)[C@H](CO)NC(=O)CNC(=O)CCSSCCCOC(=O)Oc1ccc2nc(C3=N[C@@H](C(=O)O)CS3)sc2c1)C(=O)N[C@@H](CCCCN)C(=O)N[C@H](C(=O)N[C@@H](CCCNC(=N)N)C(=O)N[C@H](C(=O)N[C@@H](CC(C)C)C(=O)N[C@@H](CCCCN)C(=O)N[C@@H](CCCNC(=N)N)C(N)=O)C(C)C)[C@@H](C)O ([Mpa](X1)GSLKTRVLKR-NH2) :: 93.1
3) CC(C)C[C@H](NC(=O)CCSSCCCOC(=O)Oc1ccc2nc(C3=N[C@@H](C(=O)O)CS3)sc2c1)C(=O)N[C@@H](CCCCN)C(=O)N[C@@H](CCCNC(=N)N)C(=O)N[C@@H](Cc1c[nH]c2ccccc12)C(=O)N[C@@H](CCCCN)C(=O)N[C@@H](CC(C)C)C(=O)N[C@@H](Cc1ccccc1)C(=O)N[C@@H](CC(N)=O)C(=O)N[C@@H](CCCCN)C(=O)N[C@@H](CCC(N)=O)C(N)=O ([Mpa](X1)LKRWKLFNKQ-NH2) :: 88.1
4) CC(C)C[C@H](NC(=O)[C@H](CCCCN)NC(=O)[C@H](Cc1c[nH]c2ccccc12)NC(=O)[C@H](CCCNC(=N)N)NC(=O)[C@H](CCCCN)NC(=O)CCSSCCCOC(=O)Oc1ccc2nc(C3=N[C@@H](C(=O)O)CS3)sc2c1)C(=O)N[C@@H](Cc1ccccc1)C(=O)N[C@@H](CC(N)=O)C(=O)N[C@@H](CCCCN)C(=O)N[C@@H](CCC(N)=O)C(=O)N[C@@H](CCC(=O)O)C(N)=O ([Mpa](X1)KRWKLFNKQE-NH2) :: 93.7
